# Tested on: A498 renal
# Experimental details: NCI-60 one-dose screen, 48 h
# Measurement context: 10 µM
This is part of a sample that, as a whole, favours compounds with a hit. Of some 83,000 tested, about 20% had one in any assay. Activity calls are given as the source filed them. The calls were made as follows: active = growth percent below 10; inactive = the rest.
Returns: one label drawn from active, inactive

Answered examples (5):
| Compound | Class name |
| --- | --- |
| C[C@@H]1C[C@@H]([C@H](O)CC2CC(=O)NC(=O)C2)C(=O)[C@@H](C)C1 | inactive |
| Cc1cc(C(C)(C)c2ccc(O)c(C)c2)ccc1O | inactive |
| C=NCC#N | inactive |
| [Cl][Hg][c]1ccc(Cl)s1 | inactive |
| CC/C(=C/c1ccc(OC)cc1)[N+](=O)[O-] | inactive |

[Q] Which outcome did this test record for the compound O=[N+]([O-])c1cc[n+]([O-])c2ccccc12 ?
[A] active

[Q] Assay outcome for C[CH2][Hg][S]c1ccccc1C(=O)O : what was it?
[A] inactive

[Q] I'd appreciate the recorded outcome for COc1ccc2c(ccc3oc([N+](=O)[O-])cc32)c1 from this test.
[A] active
